# System: BDF1 mice, Adenocarcinoma 755 s.c., tumor weight T/C
# EXPERIMENT NOTES: NCI In Vivo Anticancer Drug Screen. Data for tumor model Adenocarcinoma 755 (subcutaneous) in B6D2F1 (BDF1) mice
# EXPERIMENTAL PARAMETERS: endpoint: mean tumor weight; dose: 100.0 mg/kg/injection; schedule: Q01DX011 (ip); vehicle: other; higher = larger tumour
Listed here are molecules together with their documented T/C.

{"STRUCTURE": "CC(=O)NCCc1ccccc1", "SUBJECT OF TEST": "BDF1 mice, Adenocarcinoma 755 s.c., tumor weight T/C", "PROPERTY": "T/C", "RESULT": "87 % of control"}
{"STRUCTURE": "COCCCNS(=O)(=O)c1ncnc2nc[nH]c12", "SUBJECT OF TEST": "BDF1 mice, Adenocarcinoma 755 s.c., tumor weight T/C", "PROPERTY": "T/C", "RESULT": "7 % of control"}
{"STRUCTURE": "N#CCCn1cnc2c(Cl)ncnc21", "SUBJECT OF TEST": "BDF1 mice, Adenocarcinoma 755 s.c., tumor weight T/C", "PROPERTY": "T/C", "RESULT": "157 % of control"}

Item `CCCCOC(OCCCC)C(OCCCC)OCCCC` has what recorded T/C?
106 % of control

Do the same for `CC1=C(O)c2ccccc2C(=O)C1=O` please
96 % of control

Do the same for `CC(=O)Nc1c(Cl)c(Cl)c2c(c1Cl)C(=O)c1cc(Cl)ccc1-2` please
65 % of control

Do the same for `CC(=O)N(C)c1ccccc1` please
95 % of control

* * *

# System: BDF1 mice, Adenocarcinoma 755 s.c., tumor weight T/C
# EXPERIMENT NOTES: NCI In Vivo Anticancer Drug Screen. Data for tumor model Adenocarcinoma 755 (subcutaneous) in B6D2F1 (BDF1) mice
# EXPERIMENTAL PARAMETERS: endpoint: mean tumor weight; dose: 4.0 mg/kg/injection; schedule: Q01DX011 (ip); vehicle: carboxymethylcellulose (CMC); higher = larger tumour
PROPERTY: T/C

{"STRUCTURE": "CS(=O)(=O)OCCCCCCCCCOS(C)(=O)=O", "T/C": "49 % of control"}

Item `COc1cc(-c2ccc(N=Nc3ccc4c(S(=O)(=O)O)cc(S(=O)(=O)O)c(N)c4c3O)c(OC)c2)ccc1N=Nc1ccc2c(S(=O)(=O)O)cc(S(=O)(=O)O)c(N)c2c1O` has what recorded T/C?
44 % of control

Do the same for `Nc1nc([S-])c2nc[nH]c2n1.Nc1nc([S-])c2nc[nH]c2n1.Nc1nc([S-])c2nc[nH]c2n1.[Pt]` please
2 % of control

Do the same for `O=C(Nc1ccc(C2=NCCCN2)cc1)c1ccc(NC(=O)c2ccc(C3=NCCCN3)cc2)cc1` please
63 % of control

* * *

# Test system: BDF1 mice, Adenocarcinoma 755 s.c., tumor weight T/C
# EXPERIMENT NOTES: NCI In Vivo Anticancer Drug Screen. Data for tumor model Adenocarcinoma 755 (subcutaneous) in B6D2F1 (BDF1) mice
# EXPERIMENTAL PARAMETERS: endpoint: mean tumor weight; dose: 50.0 mg/kg/injection; schedule: Q01DX011 (ip); vehicle: other; higher = larger tumour
# Description: The antitumor activity of compounds was measured in mice bearing transplantable tumors. Survival or tumor size were measured and the results are expressed as the measurement made in the treated group (T) divided by the measurement made in the vehicle treated control group (C). The tumor model used in this assay is Adenocarcinoma 755 (subcutaneous) in B6D2F1 (BDF1) mice
PROPERTY: T/C

{"COMPOUND": "OC1c2cc(Cl)ccc2-c2c(Cl)cc(Cl)cc21 (stereo not given)", "SUBJECT OF TEST": "BDF1 mice, Adenocarcinoma 755 s.c., tumor weight T/C", "T/C": "37 % of control"}
{"COMPOUND": "C=C(Br)CN(CC)CCO", "SUBJECT OF TEST": "BDF1 mice, Adenocarcinoma 755 s.c., tumor weight T/C", "T/C": "66 % of control"}
{"COMPOUND": "CC(C)CNS(=O)(=O)c1ncnc2nc[nH]c12", "SUBJECT OF TEST": "BDF1 mice, Adenocarcinoma 755 s.c., tumor weight T/C", "T/C": "6 % of control"}
{"COMPOUND": "c1ccc2c(c1)ccc1cc3c(ccc4ccccc43)cc12", "SUBJECT OF TEST": "BDF1 mice, Adenocarcinoma 755 s.c., tumor weight T/C", "T/C": "42 % of control"}

Next compound, T/C to be filled in.
Item `C=C1CN(CC)CCO1` has what recorded T/C?
73 % of control
